Test system: EKVX NSCLC
assayName: NCI tumour cell line growth inhibition, 48 h
Would you please tag the item Condition met when its TGI is 50 µM or above, and Condition not met when it is below?

Previously resolved entries follow.
{"columns": ["compound", "targetOrSystem", "answerLabel"],
 "data": [
  ["COC(=O)c1ccc(/C=C/C2=CC(=O)C=CC2=O)cc1", "EKVX NSCLC", "Condition not met"],
  ["Cn1c(=O)c(F)c(Nc2ccc(I)cc2F)c2c(=O)n(C[C@@H](O)CO)cnc21", "EKVX NSCLC", "Condition met"],
  ["N#Cc1c2ccccc2c2nnc3cc(Cl)c(Cl)cc3n12", "EKVX NSCLC", "Condition met"]
]}

# check: TGI of COc1nc2c(nc(N)n2C2OC(CO)C(O)C(O)C2O)c(=O)n1C (centres undefined) is greater than or equal to 50 µM
Condition met

Please check the record O=C(/C=C1\N=C(c2ccccc2)N(c2ccc3c(c2)Sc2cc(N4C(=O)/C(=C/C(=O)/C=C/c5ccccc5)N=C4c4ccccc4)ccc2N3)C1=O)/C=C/c1ccccc1 and state if its TGI is at or above 50 µM.
Condition met

Please tell me: is the compound CC(C)(C)c1ccc(-c2nnc(SCc3ccc(Cl)cc3)n2-c2cccc(C(F)(F)F)c2)cc1 at or over 50 µM in terms of TGI?
Condition met

Please check the record CC(=O)NC1C(OCC(=O)NC(C)C(=O)NC(CCC(=O)NCCCCCNc2ccc([N+](=O)[O-])c3[nH]c4ccccc4c(=O)c23)C(N)=O)C(O)C(CO)OC1(C)OCc1ccccc1 (centres undefined) and state if its TGI is at or above 50 µM.
Condition met

Is TGI for CC(C)(C)NNc1c([N+](=O)[O-])cnn(-c2ccccc2)c1=O at or above 50 µM?
Condition not met

Is it the case that Cc1ccccc1NC(=O)c1[nH]c(=S)nc(N)c1-c1ccccc1C has TGI reaching or exceeding 50 µM?
Condition met

Check this compound for TGI at or above 50 µM: CCCCCCCCSC1=CC(=O)C(OC)=C(OC)C1=O
Condition not met

Recorded values, source PubChem BioAssay (NCI).
